tested on: Plasmodium falciparum; test: GSK_TCMDC: Inhibition of Plasmodium falciparum 3D7 in whole red blood cells, using parasite LDH activity as an index of growth. Test compounds present at 2uM; assay type: functional
property: Inhibition (%)
The figure you give is taken to be in %; do not add the unit.

Known value: Plasmodium falciparum Inhibition of the molecule CCCC(=O)Nc1ccc(Cl)c(NC(=O)COc2cc(C)ccc2C(C)C)c1 equals 87

Measured Inhibition (Plasmodium falciparum), entry COc1ccc(Nc2nccc(N3CCC(NC(=O)C(C)c4ccc(Cl)cc4)CC3)n2)cc1 (centres undefined) : 94

Recorded Inhibition for Cl.Cn1c(=N)n(CC(=O)N2CCc3ccc(Cl)cc3C2Cc2ccc(Cl)c(Cl)c2)c2ccccc21 (centres undefined) on Plasmodium falciparum was 100

Considering COc1ccc2nccc([C@@H](O)CN3CCC(NCCOc4ccccc4C#N)CC3)c2c1.O=C(O)C(=O)O , its Inhibition with Plasmodium falciparum was recorded as 100

The observed Inhibition for O=C(Cc1cn(-c2ccccc2)nc1-c1ccc(Cl)cc1)Nc1nccs1 when tested with Plasmodium falciparum stands at 88

Plasmodium falciparum assay, molecule N#Cc1ccc(CN2CCCN(Cc3cccc(NC(=O)c4ccc(Cl)c(Cl)c4)c3)CC2)cc1.O=C(O)C(F)(F)F , recorded Inhibition = 95

Measured Inhibition for this entry Cc1nc2c(s1)c(=O)cc(CCc1cccc(F)c1F)n2CC(=O)N(Cc1ccc(-c2ccc(C(F)(F)F)cc2)cc1)C1CCN(C(C)C)CC1.O=C(O)C(O)C(O)C(=O)O on Plasmodium falciparum: 100

Item Cc1cccc2nc(-c3ccc(-c4cccc(NC(=O)C(=O)c5cccn5C)c4)cc3)[nH]c12 was tested on Plasmodium falciparum; the reported Inhibition is 98

Measured on Plasmodium falciparum, O=C(/C=C/c1ccc(Cl)c(Cl)c1)NCCCCCN1CCN(C(=O)Nc2ccc(OC(F)F)cc2)CC1 has a documented Inhibition of 99
